experiment.notes: Solubility in water, FaSSIF and FeSSIF
Type: physicochemical
condition.description: FeSSIF, pH 5.0 (fed state); read-out: Solubility in FeSSIF pH 5.0
recorded.metric: solubility

In one line, give reported solubility of the entry CC(C)[C@H](N)C(=O)OCC[C@H](NC(=O)[C@@H]1SCCN1S(=O)(=O)c1ccc(-c2ccccc2)cc1)c1ccc(F)cc1 .
90 µg/mL

In one line, give reported solubility of the entry O=C(N[C@@H](CCO)c1ccc(F)cc1)[C@@H]1SCCN1S(=O)(=O)c1ccc(-c2ccccc2)cc1 .
10 µg/mL
